Assay: Luminescence Cell-Based Dose Retest to Confirm Inhibitors of Cancer Stem Cells. [Related pubchem assays (depositor defined):AID2717, AID2721];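 also: cells exposed to compound for roughly 70 hours or longer before luminescence read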
Type: functional
Conditions: Homo sapiens
The source made the active and inactive calls. Rule as the data show it: actives have a measured AC50 and inactives only a lower limit.
# key: entry, value: AC50

Here's what some known entries look like.
* CCOc1ccc(/C=C/C(O)=C2/C(=O)N(C)C3(C)CC2c2ccccc2O3)cc1OC (configuration not stated) | 2440 nM (active)
* CCCCNc1c(-c2ccc(OC)c(SC(C)CC)c2)nc2ccc(C)cn12 (configuration not stated) | 6870 nM (active)
* Cc1ccn2c(NC3CCCCC3)c(-c3cccc(SC4CCCCC4)c3)nc2c1 | 2650 nM (active)
* COC(=O)c1cc(NC(=O)c2cc(-c3ccccc3Cl)oc2C(F)(F)F)ccc1N1CCOCC1 | 4570 nM (active)
* COC(=O)c1c(NC(=O)Cc2cccs2)sc2c1CCC(C)C2 (configuration not stated) | 2780 nM (active)
* COc1ccccc1C1=NOC(COc2ccc3c(C)cc(=O)oc3c2)C1 (configuration not stated) | 224 nM (active)

Qu. Recorded AC50 for COc1ccc(C(=O)c2ccc(OC)cc2OC)cc1 , please?
Ans. 13600 nM (active)
